# System: pepsin
# experimental details: Remaining amount by RP-HPLC after pepsin treatment
# Type: in vitro ADME
# experimental context: pepsin (isolated protease); pepsin treated for 3 h; read-out RP-HPLC; Table S2
Where a SMILES comes first, the peptide text is derived from it.
value kind: remaining at 3 h (%)

INSERT INTO results (compound, target_of_assay, value_kind, recorded_number) VALUES
  ('CSCC[C@H](NC=O)C(=O)N[C@@H](CS)C(=O)N[C@H](C(=O)NCC(=O)N[C@@H](CC(N)=O)C(=O)N[C@@H](C)C(=O)N[C@@H](CC(=O)O)C(=O)NP(=O)(OCCCN)OC[C@H]1O[C@@H](n2cnc3c(N)ncnc32)[C@H](O)[C@@H]1O)[C@@H](C)O (some centres unmarked) [R2C] (HELM PEPTIDE1{[O=C[*:2]].M.C.T.G.N.A.[NCCCOP(=O)(NC(=O)[C@H](CC(=O)O)N[*:1])OC[C@H]1O[C@@H](n2cnc3c(N)ncnc32)[C@H](O)[C@@H]1O]}$$$$V2.0)', 'pepsin', 'remaining at 3 h', 82.5),
  ('CSCC[C@H](NC=O)C(=O)N[C@@H](Cc1c[nH]c2ccccc12)C(=O)N[C@H](C(=O)NCC(=O)N[C@@H](CC(N)=O)C(=O)N[C@@H](C)C(=O)N[C@@H](CC(=O)O)C(=O)NP(=O)(OCCCN)OC[C@H]1O[C@@H](n2cnc3c(N)ncnc32)[C@H](O)[C@@H]1O)[C@@H](C)O (some centres unmarked) [R2W] (HELM PEPTIDE1{[O=C[*:2]].M.W.T.G.N.A.[NCCCOP(=O)(NC(=O)[C@H](CC(=O)O)N[*:1])OC[C@H]1O[C@@H](n2cnc3c(N)ncnc32)[C@H](O)[C@@H]1O]}$$$$V2.0)', 'pepsin', 'remaining at 3 h', 91.3);
